target: Human immunodeficiency virus type 1 protease (Human immunodeficiency virus 1, UniProt Q72874)
Mark yes only when Ki stays strictly below 4 nM. Values equal to the cut-off are no.

Some solved entries appear below for comparison.
smilesInput | categoryLabel
COc1cccc(CN(CC(=O)NCCCC[C@@H](CO)N(CC(C)C)S(=O)(=O)c2ccc(C)cc2)c2ccccc2)c1OC | yes
Cc1ccc(S(=O)(=O)N(CC(C)C)[C@@H](CCCCNC(=O)CCCc2ccccc2)C(=O)O)cc1 | no

In: Please determine if Cc1ccc(S(=O)(=O)N(CC(C)C)[C@@H](CCCCNC(=O)[C@@H](N)Cc2ccccc2)C(=O)O)cc1 is below 4 nM in terms of Ki.
Out: yes

In: Please determine if CC(C)CN([C@H](CO)CCCCNC(=O)CN(Cc1ccc([N+](=O)[O-])cc1)c1ccccc1)S(=O)(=O)c1ccc(N)cc1 is below 4 nM in terms of Ki.
Out: yes

In: Please determine if Cc1ccc(S(=O)(=O)N(CC(C)C)[C@@H](CCCCNC(=O)CCc2ccccc2)C(=O)O)cc1 is below 4 nM in terms of Ki.
Out: no

In: Please determine if CC(C)CN([C@H](CO)CCCCNC(=O)CN(Cc1ccccc1[N+](=O)[O-])c1ccccc1)S(=O)(=O)c1ccc(N)cc1 is below 4 nM in terms of Ki.
Out: yes

In: Please determine if CC(C)CN([C@H](CO)CCCCNC(=O)CN(Cc1cccc([N+](=O)[O-])c1)c1ccccc1)S(=O)(=O)c1ccc(N)cc1 is below 4 nM in terms of Ki.
Out: yes

In: Please determine if Cc1ccc(S(=O)(=O)N(CC(C)C)[C@@H](CCCCNC(=O)CN(C)c2ccccc2)C(=O)O)cc1 is below 4 nM in terms of Ki.
Out: no

In: Please determine if COc1ccc(CN(CC(=O)NCCCC[C@@H](CO)N(CC(C)C)S(=O)(=O)c2ccc(C)cc2)c2ccccc2)cc1OC is below 4 nM in terms of Ki.
Out: yes

In: Please determine if COc1ccc(CN(CC(=O)NCCCC[C@@H](CO)N(CC(C)C)S(=O)(=O)c2ccc(N)cc2)c2ccccc2)cc1OC is below 4 nM in terms of Ki.
Out: yes

In: Please determine if Cc1ccc(S(=O)(=O)N(CC(C)C)[C@@H](CCCCNC(=O)N(Cc2ccccc2)Cc2ccccc2)C(=O)O)cc1 is below 4 nM in terms of Ki.
Out: no

In: Please determine if Cc1ccc(S(=O)(=O)N(CC(C)C)[C@@H](CCCCNC(=O)Cc2ccccc2)C(=O)O)cc1 is below 4 nM in terms of Ki.
Out: no

In: Please determine if Cc1ccc(S(=O)(=O)N(CC(C)C)[C@@H](CCCCNC(=O)OCc2ccccc2)C(=O)O)cc1 is below 4 nM in terms of Ki.
Out: no

In: Please determine if Cc1ccc(S(=O)(=O)N(CC(C)C)[C@@H](CCCCNC(=O)CSc2ccccc2)C(=O)O)cc1 is below 4 nM in terms of Ki.
Out: no

----------
target: Human immunodeficiency virus type 1 protease (Human immunodeficiency virus 1, UniProt Q72874)
# pKi annotations
Conceptually, pKi converts a concentration in mol/L into minus its log10.

The cases that follow already have their pKi on record.
smilesInput | pKi
CN[C@@H](Cc1ccccc1)C(=O)NCCCC[C@@H](C(=O)O)N(CC(C)C)S(=O)(=O)c1ccc(C)cc1 | 8.68
COc1ccc(CN(CC(=O)NCCCC[C@@H](CO)N(CC(C)C)S(=O)(=O)c2ccc(N)cc2)c2ccccc2)cc1 | 8.62

In: Given the compound Cc1ccc(S(=O)(=O)N(CC(C)C)[C@H](CO)CCCCNC(=O)CN(c2ccccc2)C(C)C)cc1 , what is its reported pKi?
Out: 7.80

In: Given the compound Cc1ccc(S(=O)(=O)N(CC(C)C)[C@H](CO)CCCCNC(=O)CN(CCc2ccccc2)c2ccccc2)cc1 , what is its reported pKi?
Out: 7.28

In: Given the compound Cc1ccc(S(=O)(=O)N(CC(C)C)[C@@H](CCCCNC(=O)CS(=O)(=O)c2ccccc2)C(=O)O)cc1 , what is its reported pKi?
Out: 7.70

In: Given the compound Cc1ccc(S(=O)(=O)N(CC(C)C)[C@@H](CCCCNC(=O)COc2ccccc2)C(=O)O)cc1 , what is its reported pKi?
Out: 7.74

In: Given the compound Cc1ccc(S(=O)(=O)N(CC(C)C)[C@@H](CCCCNC(=O)NCc2ccccc2)C(=O)O)cc1 , what is its reported pKi?
Out: 7.49

In: Given the compound Cc1ccc(S(=O)(=O)N(CC(C)C)[C@H](CO)CCCCNC(=O)CN(Cc2cccc([N+](=O)[O-])c2)c2ccccc2)cc1 , what is its reported pKi?
Out: 8.85

----------
Here's what we have: pKi numbers for UniProt Q72874.
Conceptually, pKi converts a concentration in mol/L into minus its log10.

The cases that follow already have their pKi on record.
smilesInput | measurementName | quantitativeResult
Cc1ccc(S(=O)(=O)N(CC(C)C)[C@@H](CCCCNC(=O)C(=O)Cc2ccccc2)C(=O)O)cc1 | pKi | 7.85
Cc1ccc(S(=O)(=O)N(CC(C)C)[C@H](CO)CCCCNC(=O)CN(c2ccccc2)c2ccccc2)cc1 | pKi | 7.92
Cc1ccc(S(=O)(=O)N(CC(C)C)[C@@H](CCCCNC(=O)CNc2ccccc2)C(=O)O)cc1 | pKi | 8.11
Cc1ccc(S(=O)(=O)N(CC(C)C)[C@@H](CCCCNC(=O)[C@@H](O)Cc2ccccc2)C(=O)O)cc1 | pKi | 8.21
Cc1ccc(S(=O)(=O)N(CC(C)C)[C@H](CO)CCCCNC(=O)CN(Cc2ccccc2)c2ccccc2)cc1 | pKi | 8.12
CC(C)CN([C@H](CO)CCCCNC(=O)CN(Cc1ccccc1F)c1ccccc1)S(=O)(=O)c1ccc(N)cc1 | pKi | 8.64

Now, please, on to the next compound.
In: Given the compound CC(C)CN([C@H](CO)CCCCNC(=O)CN(Cc1cccc(F)c1)c1ccccc1)S(=O)(=O)c1ccc(N)cc1 , what is its reported pKi?
Out: 8.96
